The compounds listed here are annotated with their % Inhibition.
- Tested on: P. falciparum stage V gametocytes
- Set-up: BacTiter-Glo ATP luminescence viability of purified stage V gametocytes in 384-well plates, per cent inhibition versus DMSO
- Recorded Conditions: 48 h, 5 µM; inhibitor
Among all 13,000 compounds or so, about 3,200 (25%) showed an effect of 50% or more. The list shows a part of the results.
The response must be a number in % with no trailing unit.

# Compound, % Inhibition (%)
rows = [
    ("O=C(/C=C/c1ccc(Cl)c(Cl)c1)NCCCCCCN1CCCN(C(=O)Nc2ccc(Cl)c(Cl)c2)CC1 [TCMDC-135933]", 52.33),
    ("N#Cc1cccc(C(=O)Nc2cccc(-c3ccc(C(=O)Nc4cccnc4)cc3)c2)c1 [TCMDC-133695]", -12.11),
    ("COc1ccc2ccc(F)c(CC(=O)N3CCOC(CNCc4cccc(-c5ccsc5)n4)C3)c2n1 (stereo not shown) [TCMDC-135027]", 10.39),
]

Query compound follows.
Param item = Cc1c(CNCCCNc2cc(=O)c3ccccc3[nH]2)sc(C(F)=C(F)F)c1Br [TCMDC-141189] ; retrieve measured % Inhibition. -2.633

----------
- System: P. falciparum stage V gametocytes
- Parameters: BacTiter-Glo ATP luminescence viability of purified stage V gametocytes in 384-well plates, per cent inhibition versus DMSO
- Recorded Conditions: 48 h, 5 µM; inhibitor
The campaign covered roughly 13,000 compounds. About 3,200 (25%) showed an effect of 50% or more. The list shows a part of the results.
Measurement Kind: % Inhibition (%)
The response must be a number in % with no trailing unit.

Would you please look over these solved cases?
# Smiles, Reported Measurement
measured = [
    ("COc1cc(NC(=O)c2sc(-c3ccc(Cl)cc3)cc2NC(=O)c2ccncc2)ccc1OCCN1CCCC1", 121.8),
    ("COc1cc(NC(=O)c2sc(-c3ccc(Cl)cc3)cc2NC(=O)N2CCCC2)ccc1OCCN1CCCC1", 71.79),
    ("COc1ccc(NC(=O)/C=C/c2ccccc2Cl)cc1OCCN1CCC(NCc2cccnc2)CC1", -13.35),
]

Query compound follows.
Param item = COc1cc(NC(=O)c2ccc(-c3ccc(C(C)=O)cc3)s2)ccc1OCCN1CCCC1 ; retrieve measured % Inhibition. -4.371

----------
- Tested on: P. falciparum stage V gametocytes
- Design: BacTiter-Glo ATP luminescence viability of purified stage V gametocytes in 384-well plates, per cent inhibition versus DMSO
- Recorded Conditions: 48 h, 5 µM; inhibitor
Hit rate of the full screen: of about 13,000 compounds, about 3,200 (25%) showed an effect of 50% or more. The list shows a part of the results.
The molecules listed here are annotated with their % Inhibition.
The response must be a number in % with no trailing unit.

Would you please look over these solved cases?
# Molecule, Measurement Kind, Reported Measurement
records = [
    ("COc1cc(NC(=O)Nc2ccc([N+](=O)[O-])cc2OC)c(OC)cc1Cl", "% Inhibition", 14.63),
    ("COc1cc(C(=O)N2N=C(c3c(-c4ccccc4)c4cc(Br)ccc4[nH]c3=O)CC2c2cccc([N+](=O)[O-])c2)cc(OC)c1OC (stereo not drawn)", "% Inhibition", 43.01),
    ("COc1ccccc1CCNc1ncc(F)c(N[C@@H](Cc2ccccc2)C(=O)NCCc2ccccc2)n1", "% Inhibition", 4.371),
    ("O=C(Nc1ccc([N+](=O)[O-])cc1)Nc1cc(OCC(F)(F)F)cc(OCC(F)(F)F)c1", "% Inhibition", 87.27),
    ("O=C(NCCc1ccccc1)[C@H](Cc1ccccc1)Nc1ccnc(NCC2CCCCC2)n1", "% Inhibition", 29.07),
]

Param item = O=C(NCc1cccs1)[C@H](Cc1ccccc1)Nc1ccnc(NCCc2ccc(F)cc2)n1 ; retrieve measured % Inhibition. 42.49

Thanks! And O=C1OC2(CN1CC1CCN(Cc3ccc(O)cc3Cl)C1)c1ccccc1-c1ccccc12 (stereo not drawn) ? 14.23

Thanks! And O=C(NCc1cccs1)[C@H](Cc1ccccc1)Nc1ccnc(NCCc2ccccc2)n1 ? 62.6

Thanks! And COc1ccc2nccc([C@@H](O)CN3CCC(NCc4cnc5c(c4)NC(=O)CS5)C(F)C3)c2c1 (stereo partly drawn) ? 19.26

Thanks! And O=c1cc(NCCCCNCc2ccc(Br)c(Br)c2)[nH]c2ccccc12 ? -72.79

Thanks! And COc1cc([N+](=O)[O-])ccc1NC(=O)Nc1ccc(OC(F)(F)F)cc1 ? 60.01
